Test system: Plasmodium falciparum Sir2 (PF13_0152, Sir2A)
Assay: Plasmodium falciparum Sir2A binding compounds – biochemical, small-molecule microarray, 635 nm fluorescence, primary screen (AID 1098);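 also: score merges spot fluorescence intensity with its signal-to-noise ratio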
Conditions: fluorescence 635 nm, higher = more signal
Lab note: compare composite z-score against 1. Equal or greater, write 1.0. Smaller, write 0.0.

Incoming: Quick check, composite z-score >= 1? `COCCOC(=O)N1C(=O)[C@@]2(c3cc(C#CCNC(N)=O)ccc31)[C@H](c1ccc(OCCO)cc1)N1[C@H](c3ccccc3)[C@H](c3ccccc3)OC(=O)[C@H]1[C@@H]2C(=O)N1CCN(c2ncccn2)CC1`
Outgoing: 0.0

Incoming: Quick check, composite z-score >= 1? `[N-]=[N+]=Nc1ccccc1C[C@]1(C(=O)NCCN2CCOCC2)N=C(c2ccc(OCCCO)cc2)O[C@H]1c1ccccc1N=[N+]=[N-]`
Outgoing: 1.0

Incoming: Quick check, composite z-score >= 1? OCCCC1=CC(c2cccs2)N(Cc2cccc(OC(F)(F)F)c2)CC1 (configuration not stated)
Outgoing: 1.0

Incoming: Quick check, composite z-score >= 1? `CO[C@H]1O[C@H](CO)[C@@H](OC(=O)Nc2cccc(F)c2)[C@H](OC(=O)Nc2ccc3c(c2)OCO3)[C@H]1OC(=O)Nc1ccc2c(c1)OCO2`
Outgoing: 0.0

Incoming: Quick check, composite z-score >= 1? `COc1ccc([Si](C)(C)[C@H]2[C@H](CCn3cc(CCO)nn3)O[C@@]3(C(=O)N(Cc4cccc(N5C(=O)c6cccc7cccc5c67)c4)c4ccccc43)[C@@H]2C)cc1`
Outgoing: 1.0

Incoming: Quick check, composite z-score >= 1? CCOC(=O)C1=CCC(c2cccc(Cl)c2)O1 (configuration not stated)
Outgoing: 0.0

Incoming: Quick check, composite z-score >= 1? `C=C(CCCC)/C(=C/C[C@@H](OC(=O)c1ccncc1)c1ccccc1OCCO)c1cc(C(=O)OC)ccc1OC`
Outgoing: 0.0

Incoming: Quick check, composite z-score >= 1? `CC(C)C[C@@H]1NC(=O)[C@@H]2C[C@H](C(=O)NCCCC[N+](C)(C)C)[C@H](c3cccc(OCCO)c3)N2C1=O`
Outgoing: 1.0

Incoming: Quick check, composite z-score >= 1? `COc1cccc(C)c1NC(=O)O[C@H]1[C@H](OC(=O)Nc2ccccc2)[C@H](OC(=O)Nc2ccccc2)[C@@H](OC)O[C@@H]1CO`
Outgoing: 1.0

Incoming: Quick check, composite z-score >= 1? `CCCCC(=C=CC[C@H](O)c1cccc(OCCO)c1)C[C@H](O)COCc1ccccc1`
Outgoing: 0.0

Incoming: Quick check, composite z-score >= 1? `CCCN1C(=O)[C@@]2(Cc3ccccc3)N=C(c3ccc(OCCCO)cc3)O[C@H]2c2ccccc21`
Outgoing: 1.0

Incoming: Quick check, composite z-score >= 1? `COc1ccc([Si](C)(C)[C@@H]2[C@@H](CC(=O)N(CCO)Cc3ccccc3)O[C@]3(C(=O)N(C)c4c(Br)cc(C)cc43)[C@H]2C)cc1`
Outgoing: 0.0
